- TARGET_DESC: human D3 (Homo sapiens)
- Sequence (P35462 whole entry): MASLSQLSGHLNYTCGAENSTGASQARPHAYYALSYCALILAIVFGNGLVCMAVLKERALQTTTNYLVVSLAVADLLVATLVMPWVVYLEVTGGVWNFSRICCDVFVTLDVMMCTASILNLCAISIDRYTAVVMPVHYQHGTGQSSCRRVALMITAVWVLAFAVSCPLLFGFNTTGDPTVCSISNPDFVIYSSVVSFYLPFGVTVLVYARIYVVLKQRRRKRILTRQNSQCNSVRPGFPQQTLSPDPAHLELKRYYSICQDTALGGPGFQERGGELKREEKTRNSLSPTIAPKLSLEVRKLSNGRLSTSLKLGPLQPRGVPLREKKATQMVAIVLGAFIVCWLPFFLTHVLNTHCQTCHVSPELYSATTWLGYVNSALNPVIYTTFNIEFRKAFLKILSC
- ASSAY_DETAILS: radioligand binding assay, dopamine D3 receptor, [3H]spiperone
- EXPERIMENTAL_PARAMETERS: CHO cell membranes, mean of two to five experiments in triplicate, read-out: Ki D3
pKi: −log10 of the molar value.
pKi values, listed per item

Here is how some molecules turned out for pKi.
Cc1ccc(CNCC2(F)CCN(C(=O)c3ccco3)CC2)nc1 [Example E31]    < 5.30
Cc1ccc(CNCC2(F)CCN(C(=O)c3cc4ccsc4s3)CC2)nc1 [Example E27]    < 5.30
Cc1ccc(CNCC2(F)CCN(C(=O)c3sccc3Cl)CC2)nc1 [Example E3]    < 5.30

query: Kindly indicate its recorded pKi. Item: COc1c(C(=O)N2CCC(F)(CNCc3ccc(C)cn3)CC2)csc1Br [Example E22]
result: < 5.30

====

- TARGET_DESC: dopamine D1 receptor (Sus scrofa, UniProt P50130)
- Construct: native membrane preparations from porcine striatum; from tissue; host or cells: porcine striatum
- Sequence (P50130 whole entry): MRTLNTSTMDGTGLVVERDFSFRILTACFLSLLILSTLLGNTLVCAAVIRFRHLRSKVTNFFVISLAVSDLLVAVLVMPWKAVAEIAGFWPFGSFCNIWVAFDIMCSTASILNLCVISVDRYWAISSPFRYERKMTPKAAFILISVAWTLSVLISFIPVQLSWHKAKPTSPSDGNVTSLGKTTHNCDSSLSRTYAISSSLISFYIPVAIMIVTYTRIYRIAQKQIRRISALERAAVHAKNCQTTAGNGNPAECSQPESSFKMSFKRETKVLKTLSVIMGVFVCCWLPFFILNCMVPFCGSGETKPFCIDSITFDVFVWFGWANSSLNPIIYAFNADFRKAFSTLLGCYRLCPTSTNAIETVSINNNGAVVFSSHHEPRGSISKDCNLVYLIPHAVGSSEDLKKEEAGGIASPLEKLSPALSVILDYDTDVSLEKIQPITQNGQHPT
- ASSAY_DETAILS: radioligand binding assay, dopamine D1 receptor, [3H]SCH 23390
- EXPERIMENTAL_PARAMETERS: porcine striatum membranes, mean of two to five experiments in triplicate, read-out: Ki D1
VALUE_TYPE: Ki

Sample records with Ki:
CSc1ccc(C(=O)N2CCC(F)(CNCc3ccc(C)cn3)CC2)s1    > 5 µM
Cc1ccc(CNCC2(F)CCN(C(=O)c3ccoc3)CC2)nc1    > 5 µM
Cc1ccc(CNCC2(F)CCN(C(=O)c3cc(C)cs3)CC2)nc1    > 5 µM
Cc1ccc(CNCC2(F)CCN(C(=O)c3cc4ccccc4o3)CC2)nc1    > 5 µM

// switching to the query compound
query: Give me measured Ki, please, for this compound: `Cc1ccc(CNCC2(F)CCN(C(=O)c3cc(Br)cs3)CC2)nc1`
result: > 5 µM

====

- TARGET_DESC: 5-HT1A (Sus scrofa, UniProt A0A4X1UTF5)
- Construct: membrane preparations from porcine cortex; from tissue; host or cells: porcine cortex
- Sequence (A0A4X1UTF5 1-422): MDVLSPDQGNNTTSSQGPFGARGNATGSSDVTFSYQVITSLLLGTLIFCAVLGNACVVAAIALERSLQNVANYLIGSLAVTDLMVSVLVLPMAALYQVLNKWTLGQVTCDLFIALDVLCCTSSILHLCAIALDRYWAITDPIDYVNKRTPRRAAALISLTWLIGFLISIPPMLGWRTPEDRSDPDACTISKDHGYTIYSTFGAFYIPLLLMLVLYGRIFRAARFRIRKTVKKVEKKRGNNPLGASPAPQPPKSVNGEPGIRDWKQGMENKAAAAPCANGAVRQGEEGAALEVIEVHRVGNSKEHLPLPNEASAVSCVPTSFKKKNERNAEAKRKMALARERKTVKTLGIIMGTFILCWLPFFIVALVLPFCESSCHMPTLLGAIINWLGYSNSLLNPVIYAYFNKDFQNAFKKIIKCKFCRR
- ASSAY_DETAILS: radioligand binding assay, serotonin 5-HT1A receptor, [3H]WAY 100635
- EXPERIMENTAL_PARAMETERS: porcine cortex membranes, mean of two to five experiments in triplicate, read-out: Ki 5-HT1a
pKi: −log10 of the molar value.
In this section we review reported pKi values for a set of compounds.

Cc1ccc(CNCC2(F)CCN(C(=O)c3cccs3)CC2)nc1 [Example E1]    > 7.30
Cc1ccc(CNCC2(F)CCN(C(=O)c3cc[nH]n3)CC2)nc1    5.30 to 6.30
Cc1ccc(CNCC2(F)CCN(C(=O)c3sccc3Cl)CC2)nc1    > 7.30

query: Please look at this compound and report its pKi: `COc1c(C(=O)N2CCC(F)(CNCc3ccc(C)cn3)CC2)csc1Br`
result: > 7.30
